- MEASURED ON: EPHB1 (UniProt P54762)
- Sequence (P54762 whole entry, looked up): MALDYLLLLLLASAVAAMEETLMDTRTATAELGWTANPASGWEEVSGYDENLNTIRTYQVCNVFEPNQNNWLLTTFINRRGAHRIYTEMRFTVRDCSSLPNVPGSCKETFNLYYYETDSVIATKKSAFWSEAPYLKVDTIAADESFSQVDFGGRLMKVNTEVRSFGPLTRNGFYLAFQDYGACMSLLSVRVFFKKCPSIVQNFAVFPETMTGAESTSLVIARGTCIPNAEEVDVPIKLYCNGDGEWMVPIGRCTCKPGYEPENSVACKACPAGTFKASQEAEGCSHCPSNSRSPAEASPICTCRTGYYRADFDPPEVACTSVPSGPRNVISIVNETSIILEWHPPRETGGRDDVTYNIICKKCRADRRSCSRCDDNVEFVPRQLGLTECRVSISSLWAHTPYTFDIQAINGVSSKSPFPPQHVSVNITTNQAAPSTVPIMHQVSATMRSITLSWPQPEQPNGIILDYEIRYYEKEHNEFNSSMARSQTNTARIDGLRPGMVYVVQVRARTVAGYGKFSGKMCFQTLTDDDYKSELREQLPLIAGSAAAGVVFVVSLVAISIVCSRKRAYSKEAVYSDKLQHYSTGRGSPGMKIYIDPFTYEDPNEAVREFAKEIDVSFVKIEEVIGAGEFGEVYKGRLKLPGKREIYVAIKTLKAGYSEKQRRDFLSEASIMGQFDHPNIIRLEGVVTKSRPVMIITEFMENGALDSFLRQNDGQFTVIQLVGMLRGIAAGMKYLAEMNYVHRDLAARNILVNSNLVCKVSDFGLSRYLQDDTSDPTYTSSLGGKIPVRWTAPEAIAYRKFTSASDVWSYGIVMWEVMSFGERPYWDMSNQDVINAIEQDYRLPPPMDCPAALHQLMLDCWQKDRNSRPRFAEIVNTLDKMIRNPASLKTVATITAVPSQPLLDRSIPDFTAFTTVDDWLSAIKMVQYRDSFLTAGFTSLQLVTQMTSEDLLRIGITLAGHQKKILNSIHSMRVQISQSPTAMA
- TEST PROTOCOL: phosphorylation enrichment, bacterial display (enrichment ratio); higher = better substrate or ligand; peptides without Tyr show the background
# cutoff 0.4 applies to phosphorylation enrichment; >= gives Condition met, < gives Condition not met

Solved cases below.
>>> cat("TLSGIYQFSIA [FOXL2_Y81_I84S_YF]")
"Condition met"
>>> cat("GRRNTCYASIA [ACADM_Y352_Y352C]")
"Condition not met"

Does the reported phosphorylation enrichment for NKKFHYRELPV [ERN2_Y860_H858Y_YF] fall at or above the 0.4 mark? Condition not met

Queued: KLADIYQAELR [GFAP_Y116_V115I] Condition met

====

- MEASURED ON: EPHB2 (UniProt P29323)
- Sequence (P29323 whole entry, looked up): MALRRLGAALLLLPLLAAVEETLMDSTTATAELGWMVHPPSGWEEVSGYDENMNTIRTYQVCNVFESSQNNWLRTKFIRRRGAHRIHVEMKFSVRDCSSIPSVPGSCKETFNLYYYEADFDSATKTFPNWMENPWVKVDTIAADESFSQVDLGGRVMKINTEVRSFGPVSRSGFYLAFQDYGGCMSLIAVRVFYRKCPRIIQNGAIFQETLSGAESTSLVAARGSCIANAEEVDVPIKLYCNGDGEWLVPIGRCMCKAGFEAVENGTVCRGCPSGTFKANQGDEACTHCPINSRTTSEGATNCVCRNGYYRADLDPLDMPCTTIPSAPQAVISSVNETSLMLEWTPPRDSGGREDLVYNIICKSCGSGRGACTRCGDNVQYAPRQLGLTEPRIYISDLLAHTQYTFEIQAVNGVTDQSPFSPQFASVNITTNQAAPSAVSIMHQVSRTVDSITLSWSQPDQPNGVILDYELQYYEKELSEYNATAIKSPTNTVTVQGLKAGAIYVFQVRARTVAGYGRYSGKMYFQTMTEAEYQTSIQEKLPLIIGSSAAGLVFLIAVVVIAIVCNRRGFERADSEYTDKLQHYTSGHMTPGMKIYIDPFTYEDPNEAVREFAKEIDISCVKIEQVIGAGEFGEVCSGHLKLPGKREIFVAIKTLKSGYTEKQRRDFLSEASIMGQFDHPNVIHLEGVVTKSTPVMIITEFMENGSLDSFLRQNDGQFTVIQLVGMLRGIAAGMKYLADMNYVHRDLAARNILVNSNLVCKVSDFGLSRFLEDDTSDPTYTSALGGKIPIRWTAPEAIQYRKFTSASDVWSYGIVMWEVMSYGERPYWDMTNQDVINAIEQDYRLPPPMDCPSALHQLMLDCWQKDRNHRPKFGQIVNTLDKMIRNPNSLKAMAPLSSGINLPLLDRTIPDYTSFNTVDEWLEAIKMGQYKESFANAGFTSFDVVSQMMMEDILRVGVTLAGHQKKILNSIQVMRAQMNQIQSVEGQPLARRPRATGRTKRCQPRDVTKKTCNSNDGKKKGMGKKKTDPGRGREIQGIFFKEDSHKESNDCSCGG
- TEST PROTOCOL: phosphorylation enrichment, bacterial display (enrichment ratio); higher = better substrate or ligand; peptides without Tyr show the background
For each record, write down the corresponding phosphorylation enrichment.
One number for each entry.

Example sequences with recorded phosphorylation enrichment:
>>> quantitative_readout("SWSTSYSGYRY [NKAPL_Y91]")
0.619
>>> quantitative_readout("LITLVYGCSRQ [TMPRSS6_Y290_S288L]")
0.876
>>> quantitative_readout("REETTYLPLTS [ICAM3_Y527_S525T]")
0.548

Quick one: give me phosphorylation enrichment for each item below, same order please.
1. SGKSEYLLPVA [MYLK_Y611_R607G]
2. LYRYGYANTSE [SI_Y1233_C1229Y]
3. YRVDCYKNFVA [FHL1_Y213_C209R]
4. ARVANYQRDGP [CAT_Y386]
5. TSEASYFKSLN [NGEF_Y288_YF]
6. NREGVYTVSAP [TGFBI_Y537_F540S]
7. FSQQTYYRVSN [ABCD1_Y180]

1. 0.424
2. 0.39
3. 0.595
4. 0.406
5. 0.599
6. 0.517
7. 1.06

Quick one: give me phosphorylation enrichment for each item below, same order please.
1. GGRIDYIAGLV [APRT_Y60_D65V]
2. RHPFFYAPELL [ALB_Y174_YF]
3. EQKKNYNAMKK [SCN5A_Y1495_Y1494N]
4. DEDEEYEFMNR [ERBB3_Y1197_YF]

[0.604, 1.04, 0.561, 0.515]

====

- MEASURED ON: Grb2 SH2 (UniProt P62993)
- Sequence (P62993 whole entry, looked up): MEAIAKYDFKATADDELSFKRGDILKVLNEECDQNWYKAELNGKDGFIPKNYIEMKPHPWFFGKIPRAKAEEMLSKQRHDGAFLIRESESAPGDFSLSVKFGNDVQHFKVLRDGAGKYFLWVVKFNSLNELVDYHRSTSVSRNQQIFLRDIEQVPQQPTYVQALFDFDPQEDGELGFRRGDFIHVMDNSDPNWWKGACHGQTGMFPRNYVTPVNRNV
- TEST PROTOCOL: SH2 binding enrichment of the phosphorylated peptide, bacterial display (enrichment ratio); higher = better substrate or ligand; peptides without Tyr show the background
# cutoff 0.8 applies to SH2 binding enrichment; >= gives fulfilled, < gives not fulfilled

>>> cat("NIKKEYTKMVQ [PMS2_Y181_A182T]")
"fulfilled"

Now look at this entry.
Does the reported SH2 binding enrichment for ILNANYMAKRL [GLDC_Y839] fall at or above the 0.8 mark? fulfilled

====

- MEASURED ON: SHP2-C SH2
- TEST PROTOCOL: SH2 binding enrichment of the phosphorylated peptide, bacterial display (enrichment ratio); higher = better substrate or ligand; peptides without Tyr show the background
ASSAY METRIC: SH2 binding enrichment
Numbers only.

Example sequences with recorded SH2 binding enrichment:
>>> quantitative_readout("AVLQLYIFVAT [CFTR_Y1014_P1013L]")
0.701
>>> quantitative_readout("EPSLDYMVTKI [CPS1_Y768]")
0.914
>>> quantitative_readout("ITVCDYTNPCP [MYD88_Y276_T281P]")
0.85
>>> quantitative_readout("PMQLPYDSTWE [PDGFRB_Y589]")
1.47
>>> quantitative_readout("GRRNTYYASIA [ACADM_Y352]")
0.624

Quick one: give me SH2 binding enrichment for each item below, same order please.
1. TAALWYIFLHT [ENG_Y612_S615L_YF]
2. RHPYFFAPELL [ALB_Y174_Y174F]

1: 1.09; 2: 1.01

Data provenance is the supplement of paper PMC10065799.
